- Tested on: MIWI (PIWIL1) piRISC loaded with L1MC piRNA (30 nt);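 also: 1 nM active piRISC with 0.1 nM target library at 33 °C single turnover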
- test-protocol: pre-steady-state target cleavage rate (min^-1); MIWI and MILI are mouse PIWI proteins and EfPiwi is from a freshwater sponge; tags in brackets are library labels; higher = faster piRNA-guided slicing of the target;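 also: 1 nM active piRISC with 0.1 nM target library at 33 °C single turnover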
- experimental-parameters: guide: L1MC piRNA 5'p-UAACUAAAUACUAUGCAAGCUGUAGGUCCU; auxiliary factor: 500 nM mouse GTSF1
In all, about 8,200 sequences were measured (“pre-steady-state target cleavage rate”: median about 0.024, highest 2% from about 1.3 on). This excerpt belongs to a sample that is enriched for the highest values.
reported-metric: pre-steady-state target cleavage rate
Numbers only.

// worked examples, pre-steady-state target cleavage rate included
UCCUCCUUCAGCAUGCAUAGUAUUUAGUUA : 1.01
UCCUGCUACAGCAUGCAUAGUAUUUAGUAA : 0.655
UGGACCUACAGGUUGCAUAGUAAUUAGUUA : 0.731
AGACCUACAGCUUGCAUAGUAUUUAGUUA : 1.46
AGGACCUACAGCUUGCAUAGUAUUUAGUUG [g2:g30:cont:t1G] : 0.455

Parameters: items (list). Returns: pre-steady-state target cleavage rate for each item.
1. UCGACGUACAGCUUCCAUAGUAUUUAGUUA
2. UGGACCUACACCUUGCAUAGUAUUUUCAAA
3. UCCUGCAACAGCUUGCAUAGUAUAUAGUUA
4. AGGUGGUACAGCUUGCAUAGUAUUUAGUAA

Given back:
1. 0.0527
2. 0.327
3. 0.844
4. 0.645
